Attribution: ChEMBL document CHEMBL3853264

- TEST: Intrinsic clearance in dog liver microsomes
- Type: ADME, Canis lupus familiaris
- DETAILS: read-out: CLH
Form field: microsomal CLint (one value per entry).

smiles=N#Cc1cc(S(=O)(=O)Nc2ccc(F)cn2)ccc1Oc1ccc(CO)c(Cl)c1 result="< 18 µL/min/mg"

Task: What value of measured microsomal CLint is listed for N#Cc1ccc(Oc2ccc(S(=O)(=O)Nc3ccc(F)cn3)cc2C#N)cc1Cl ?
Result: < 18 µL/min/mg

###

- TARGET_DESC: Cytochrome P450 3A4 (Homo sapiens)
- Sequence (P08684 whole entry): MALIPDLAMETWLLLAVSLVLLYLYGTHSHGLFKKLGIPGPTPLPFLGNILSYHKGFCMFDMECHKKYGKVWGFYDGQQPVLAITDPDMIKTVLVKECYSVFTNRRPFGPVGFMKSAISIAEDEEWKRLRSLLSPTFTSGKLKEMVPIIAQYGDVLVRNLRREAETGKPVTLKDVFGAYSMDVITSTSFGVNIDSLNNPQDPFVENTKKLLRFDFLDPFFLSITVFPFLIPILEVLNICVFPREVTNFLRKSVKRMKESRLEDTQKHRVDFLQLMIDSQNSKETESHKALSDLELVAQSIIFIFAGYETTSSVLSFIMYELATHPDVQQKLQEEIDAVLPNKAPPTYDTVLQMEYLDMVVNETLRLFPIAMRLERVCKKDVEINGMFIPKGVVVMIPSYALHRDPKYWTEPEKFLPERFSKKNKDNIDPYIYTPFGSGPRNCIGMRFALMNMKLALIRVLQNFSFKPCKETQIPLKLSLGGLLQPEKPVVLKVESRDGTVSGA
READOUT_TYPE: IC50 (µM)
The figure you give is taken to be in µM; do not add the unit.

Task: What value of measured IC50 is listed for N#Cc1ccc(Oc2ccc(S(=O)(=O)Nc3ccc(F)cn3)cc2C#N)cc1Cl ?
Result: 17.5
